A compilation of IC50 values for IRAK4 (Homo sapiens (Human)) from the published literature.
Your answer should be a plain number; it is taken to be in nM.

Known results for compounds:
Input line: Notebook entry, IRAK4 (Homo sapiens (Human)) assay: IC50 of CC(C)Nc1cc(-c2cnc3ccc(NCCO)nn23)ncc1C(=O)NC[C@@H](F)C(C)(C)O = ?
Output line: 3

Input line: # returns recorded IC50 (system: IRAK4 (Homo sapiens (Human))) for Cc1nc(NCCCN2CCN(C)CC2)nc(N[C@@H]2C[C@H](CO)[C@@H](O)[C@H]2O)c1-c1nc2ccccc2s1
Output line: 6090

Next:
Input line: So what IC50 did CC(F)(F)CNc1cc(-c2cnn3cc(C#N)cnc23)ncc1C(=O)NC[C@@H](F)C(C)(C)O get with IRAK4 (Homo sapiens (Human))?
Output line: 4

Input line: # query: IC50 | item CC(C)(O)[C@H](F)CNC(=O)c1cnc(Nc2ccc3ncoc3c2)cc1N[C@@H]1CCCC1F (stereo partly drawn) | system: IRAK4 (Homo sapiens (Human))
Output line: 4.4

====

Consider the following pIC50 data for IRAK4 (Homo sapiens (Human)), collected from several reports.
Hey, just a heads up that pIC50 is the negative log base 10 of the concentration in molar.

Sample answers from the record:
Input line: Reported pIC50, compound CC(C)Nc1cc(Nc2ccc3ncsc3c2)ncc1C(=O)NC1CCc2[nH]ncc2C1 (stereo not shown) : ____
Output line: 8.07

Input line: Reported pIC50, compound C=CC(=O)N1CCC[C@H](C(=O)Nc2ccc(NC(=O)c3csc(-c4ccn[nH]4)n3)nc2)C1 : ____
Output line: 5.24

Input line: Param item = CCCNc1cc(-c2cnc3cc(Cl)cnn23)ncc1C(=O)NC[C@@H](F)C(C)(C)O ; retrieve measured pIC50.
Output line: 8.52

More entries:
Input line: Request the reported pIC50 associated with CN(C)C(=O)N1CCC(N2CC(n3cc(NC(=O)c4cccc(-c5cnn(CC(F)F)c5)n4)c(C(F)F)n3)C2)CC1
Output line: 8.82

====

Ok so here's the combined literature set: IC50 for IRAK4 (Homo sapiens (Human), UniProt Q9NWZ3).
Recorded IC50 split into classes bin 1 (below 4 nM), bin 2 (4 nM to below 20 nM), bin 3 (20 nM or more)

Solved cases (3 shown):
Input line: Using the reported IC50, which band applies to CC(C)Nc1cc(-n2ncc3cc(C#N)cnc32)ncc1-n1cc(CCC(C)(C)OC(=O)C2CC2)nn1 ?
Output line: bin 1

Input line: Assign a bin to Fc1cc2ncnc(N[C@H]3CC[C@H](N4CCOCC4)CC3)c2cc1-c1cncnc1
Output line: bin 2

Input line: Field: class (IC50) — entry: O=C(NCCc1cccnc1)c1cnc2ccc(-c3cn[nH]c3)cc2c1NC1CC1
Output line: bin 2

More entries:
Input line: The entry to classify is COCCNC(=O)c1cnc2sc(-c3cncs3)cc2c1Nc1cnn(CC(F)F)c1 ; which class holds it?
Output line: bin 3

Input line: Assign a bin to CCOC(=O)c1ccc2[nH]c3ncnc(N[C@H]4CC[C@H](N(C)C)CC4)c3c2c1
Output line: bin 3

Input line: Tag the class for CC(C)Nc1cc(-n2ncc3cc(C#N)cnc32)ncc1-c1cn(C[C@H](O)c2ccccc2)nn1
Output line: bin 2

Input line: Returns: class label. Input: CC(C)(O)[C@H](F)CNC(=O)c1cnc(-c2cnn3cc(C#N)cnc23)cc1Nc1ccn(CC(F)F)n1
Output line: bin 1

Input line: Please classify: CNc1cc(-c2ccc3cc(C#N)cnn23)ncc1-c1cn(CC(F)F)nn1
Output line: bin 2

Input line: Lab log: Fc1cc(-c2ccc3ncnc(N[C@H]4CC[C@H](N5CCOCC5)CC4)c3c2)cnc1Cl — assign IC50 category
Output line: bin 3
